Cited source for all entries: ChEMBL document CHEMBL4689842

# System: HEK-293T
# Protocol notes: Multiplex assay against HEK293T
# Format: toxicity, cell-based
# Run parameters: human, 12 h, 1 µM, compound concentration 1 uM, replicate 2
Measure name: Population Pyknosed Nuclei (%)
Write it as a number; the unit % goes unstated.

[ask] Please list Population Pyknosed Nuclei (%) recorded for the molecule CC(C)C[C@H](NC(=O)[C@H](Cc1ccccc1)NC(=O)CNC(=O)CNC(=O)[C@@H](N)Cc1ccc(O)cc1)C(=O)O [ENKEPHALIN]
[reply] 43

[ask] Supply Population Pyknosed Nuclei (%) value. Item: CC[C@@H]1C(=O)N(C)c2cnc(Nc3ccc(C(=O)N[C@H]4CC[C@H](N5CCN(CC6CC6)CC5)CC4)cc3OC)nc2N1C(C)C [VOLASERTIB]
[reply] 19

[ask] Please supply the value of reported Population Pyknosed Nuclei (%) for the item C=CC(=O)Nc1cc(-n2c(=O)ccc3cnc4ccc(-c5ccc(NS(C)(=O)=O)cc5)cc4c32)ccc1C
[reply] 50

[ask] Determine from records and report Population Pyknosed Nuclei (%) for CCOC(=O)CCNc1cc(N2CCc3ccccc3CC2)nc(-c2ccccn2)n1
[reply] 4

[ask] Give a short answer stating reported Population Pyknosed Nuclei (%) for CC(/C=C1\SC(=S)N(CCCC(=O)Nc2ccc(C(=O)O)c(O)c2)C1=O)=C\c1ccccc1 .
[reply] 52

[ask] Please supply the value of reported Population Pyknosed Nuclei (%) for the item CC(Cc1ccc(O)c(O)c1)C(C)Cc1ccc(O)c(O)c1 (configuration not stated) [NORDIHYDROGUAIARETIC ACID]
[reply] 57

[ask] Provide one value: measured Population Pyknosed Nuclei (%) of CCCCCNC(=N)N/N=C/c1c[nH]c2ccc(OC)cc12.O=C(O)/C=C\C(=O)O [TEGASEROD MALEATE]
[reply] 59
